Where these numbers come from: patent US8247211B2

Overview of recorded MIC Enterococcus faecalis (GC 4553) for various molecules
Tested on: Enterococcus sp.
assay info: In vitro antibacterial evaluation: minimum inhibitory concentration (MIC), broth dilution method
Type: cell-based
assay conditions: strain GC 4553
Answer in µg/mL, number only, no unit symbol.

# molecule, MIC Enterococcus faecalis (GC 4553), µg/mL
measured = [
    ("CC(c1ccccc1)C1NC(=O)CNC(=O)C(CO)NC(=O)C(C(O)C2CNC(=N)N2C2OC(CO)C(O)C(O)C2O)NC(=O)C(C(O)C2CNC(=N)N2)NC(=O)C(Cc2ccc(OC3OC(CO)C(OC4OC5COC(c6cccc(Oc7ccccc7)c6)OC5C(O)C4O)C(O)C3O)cc2)NC1=O (stereo not shown) [Example 170]", 4),
]

Here's the next entry for you.
// MIC Enterococcus faecalis (GC 4553) lookup, key: COc1cc(OC)cc(C2OCC3OC(OC4C(CO)OC(Oc5ccc(CC6NC(=O)C(C(C)c7ccccc7)NC(=O)CNC(=O)C(CO)NC(=O)C(C(O)C7CNC(=N)N7C7OC(CO)C(O)C(O)C7O)NC(=O)C(C(O)C7CNC(=N)N7)NC6=O)cc5)C(O)C4O)C(O)C(O)C3O2)c1 (stereo not shown) [Example 150] 8
